test: Fractional α‐helicity by circular dichroism (CD) spectroscopy; assay type: physicochemical; settings: 60 μM peptide, 10 mM sodium phosphate buffer pH 7.4, 4 °C, CDSSTR algorithm on DichroWeb
measurement label: fH (exp), measured fractional helicity via CD spectroscopy (%)
Note: unit % is implicit; provide only the numeric part.

1) Ac‐βHAsp‐P‐P‐QAKTFLDKFNHEAEDLFYQ‐NH2 [P‐1‐2]	4
2) Ac‐ E QAKTFLDKFNHEAEDLFYQ K ‐NH2 [P‐2‐3]	5

Next substance, fH (exp), measured fractional helicity via CD spectroscopy to be filled in.
query: Given Ac‐βHAsp‐[ProM‐5]‐QAKTFLDKFNHEAEDLFYQ‐NH2 [P‐1‐1, βHAsp‐ProM‐5 N‐capped peptide of ACE2 α1 Gln24 to Gln42] , respond with its fH (exp), measured fractional helicity via CD spectroscopy.
result: 4
